# assayed-target: serotonin uptake (Rattus norvegicus)
# Sequence (P31652 whole entry): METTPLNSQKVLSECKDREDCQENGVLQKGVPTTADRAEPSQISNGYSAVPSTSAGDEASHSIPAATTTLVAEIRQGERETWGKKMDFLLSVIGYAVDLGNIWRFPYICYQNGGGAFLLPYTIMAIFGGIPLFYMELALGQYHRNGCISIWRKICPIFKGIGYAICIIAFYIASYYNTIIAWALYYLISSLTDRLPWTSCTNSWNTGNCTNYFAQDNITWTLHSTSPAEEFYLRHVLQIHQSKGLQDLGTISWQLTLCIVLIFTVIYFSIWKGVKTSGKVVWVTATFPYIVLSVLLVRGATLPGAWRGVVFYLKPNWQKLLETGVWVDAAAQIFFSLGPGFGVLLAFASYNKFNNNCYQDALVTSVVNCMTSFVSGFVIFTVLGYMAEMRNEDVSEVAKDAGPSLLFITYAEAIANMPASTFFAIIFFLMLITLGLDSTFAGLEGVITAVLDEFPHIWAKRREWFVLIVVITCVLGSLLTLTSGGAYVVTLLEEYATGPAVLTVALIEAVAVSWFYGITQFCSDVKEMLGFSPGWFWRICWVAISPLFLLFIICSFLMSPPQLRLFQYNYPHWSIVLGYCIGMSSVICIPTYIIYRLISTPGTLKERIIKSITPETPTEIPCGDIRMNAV
# measurement-description: Inhibition of serotonin uptake (in vitro): inhibition of synaptosomal reuptake of tritiated serotonin
Where a name gives a salt, the structure may show the parent alone.
// boundary case: IC50 equal to 100 nM maps to no; strictly smaller maps to yes

Solved entries:
Quick check: IC50 of FC(F)(F)c1cccc(N2CCN(CCc3c[nH]c4ccccc34)CC2)n1 [Example 15, hydrochloride] under 100 nM?
yes

Quick check: IC50 of CC(Cc1c[nH]c2ccccc12)N1CCN(c2cccc(Cl)n2)CC1 (stereo not drawn) under 100 nM?
yes

Quick check: IC50 of `COc1cccnc1N1C[C@H]2C[C@@H]1CN2CCc1c[nH]c2ccccc12` under 100 nM?
no

Quick check: IC50 of `COc1ccc2c(CCN3CCN(c4cccc(Cl)n4)CC3)c[nH]c2c1` under 100 nM?
no

More entries:
Quick check: IC50 of `Clc1cccc(N2C[C@H]3C[C@@H]2CN3CCc2c[nH]c3ccccc23)n1` under 100 nM?
no
